Experiment: NCI Yeast Anticancer Drug Screen. Data for the bub3 strain (AID 167)
Details: S. cerevisiae bub3 mutant strain, at 3.7 µM, hits give high values
The panel holds about 79,000 compounds, 15% with a hit somewhere; the sample as a whole holds those more often.
parameterMeasured: growth inhibition (%)
State the answer as a number, implicitly in %.

O=c1nc2n(Cc3ccccc3)c3ccccc3nc-2c(=O)[nH]1	-6
CC(C)/C(Cl)=N\OC(=O)Nc1ccc(F)cc1F	38
COc1ccc(/C=C2\NC(=S)N(/C=C3\C(=O)Oc4ccccc4C3=O)C2=O)cc1	-2

For O=[n+]1c2ccccc2n([O-])c2cc(Br)ccc21 the compound record lists growth inhibition as 63

Query Nc1n[n+]([O-])c2ccc(Cl)cc2[n+]1[O-] yields growth inhibition of 15

Data point: O=C(NCCCl)Sc1ccc(Cl)cc1 ; growth inhibition = 0

get_value(item= NCCNCCNc1ccc(NCCNCCN)c2c1C(=O)c1c(O)ccc(O)c1C2=O , readout=growth inhibition) returns -11

----------
Experiment: NCI Yeast Anticancer Drug Screen. Data for the rad52 strain (AID 147);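 further: 0% = growth of vehicle-treated control cultures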
Conditions: S. cerevisiae rad52 mutant growth inhibition; at 1.2 µM; hits give high values
About 79,000 compounds went through this panel and 15% of them were active in at least one assay; those are over-represented in the sample as a whole. Active and inactive are the calls of the source. Rule as the data show it: active = growth inhibition above about 70%; inactive = the rest.
parameterMeasured: growth inhibition

Documented growth inhibition of C/C(=N\Nc1ccc([N+](=O)[O-])cc1[N+](=O)[O-])c1sc(-n2nc(-c3ccccc3)cc2-c2ccccc2)nc1C : -1% (inactive)

Entry under test: CCCCCCCCCCCCCCCCOP(=O)(O)OCC(N)C(=O)O (stereo not given) . Its growth inhibition was -2% (inactive)

Record O=C(O)c1ccccc1/C=N/N=C1c2ccccc2-c2ccccc21 , field growth inhibition: -3% (inactive)

Entry O=C1Nc2ccccc2/C1=C/c1ccccc1 ; growth inhibition = -2% (inactive)

For record CCCCOCn1c(=O)[nH]c(=O)c2cc(Br)ccc21 the listed growth inhibition is -35% (inactive)

----------
Experiment: NCI Yeast Anticancer Drug Screen. Data for the rad50 strain (AID 155);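 further: 0% = growth of vehicle-only cultures of the same strain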
Conditions: S. cerevisiae rad50 strain growth inhibition; at 50.0 µM; hits give high values
This is part of a sample that, as a whole, favours compounds with a hit. Of some 79,000 tested, about 15% had one in any assay.
parameterMeasured: growth inhibition (%)
API: value field is a number in %; no unit string.

O=C(CC(=O)n1nc(-c2ccccc2)c(N=Nc2ccc(Cl)cc2)c1-c1ccccc1)Nc1cccc(Cl)c1	48.1
CCCCOC(=O)Nc1ccc(C)c(NC(=O)OCCCC)c1	89.9

Lab note: next compound to report on.
Please fill in: growth inhibition reported for Cc1c(C(C)C)cc(OCCO)cc1C(C)C = 68.7

----------
Experiment: NCI Yeast Anticancer Drug Screen. Data for the rad14 strain (AID 159);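 further: 0% = growth of vehicle-treated control cultures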
Conditions: S. cerevisiae rad14 strain growth inhibition; at 11.0 µM; hits give high values
About 79,000 compounds went through this panel and 15% of them were active in at least one assay; those are over-represented in the sample as a whole.
parameterMeasured: growth inhibition (%)
Use % as the unit, but write only the number.

Cc1cc(O)c(C(C)C)cc1C1(c2cc(C(C)C)c(O)cc2C)OC(=O)c2ccccc21	-1
CC(C)(C)C1=CC(=CC=C2C=CN(CCCCCCCCCCCO)C=C2)C=C(C(C)(C)C)C1=O	99

Then this compound:
Short answer for Clc1ccc2c(c1)N(CCCN1CCCC13CCCCC3)c1ccccc1S2 : growth inhibition was -2

----------
Measured growth inhibition by item
Assay: NCI Yeast Anticancer Drug Screen. Data for the bub3 strain (AID 167)
Details: S. cerevisiae bub3 mutant strain, at 5.0 µM (retest, dose inferred, filed as 0.5), hits give high values
Description: Growth inhibition of yeast strains with defined genetic alterations is measured as a screen for potential anti-cancer activity. Selected strains with alterations in DNA damage repair or cell cycle control were exposed to compounds and growth inhibition was measured relative to vehicle treated controls. The strain used in this assay is bub3
The panel holds about 79,000 compounds, 15% with a hit somewhere; the sample as a whole holds those more often.
Field format: number, assumed %, no unit text.

Use the examples below as a reference point.
CC1CC[C@]2(C(=O)O)CCC3(C)C(=CC(=O)C4[C@@]5(C)CCC(=O)C(C)(C)C5CC[C@]43C)[C@@H]2[C@H]1C (stereo partly drawn)	58
O=C1OC(C2=CC(=O)c3ccccc3C2=O)C(Cl)=C1Cl (stereo not drawn)	-1
COC(=O)CC1CCc2c(ccc3ccccc23)C1(C)C(=O)OC (stereo not drawn)	2
N/C(=N/N=C/c1cc(Br)cc(Br)c1O)NO	-5
CCc1ccc2c(c1)N(CC(C)CN(C)C)c1ccccc1S2 (stereo not drawn)	2
NC1=NNC2(C(N)=N1)c1ccccc1-c1ccccc12	-27

Summary for this compound, Cc1ccc(NCCNCCO)c2c(=O)c3cc(O)ccc3sc12 : growth inhibition is 18

Item: CCCC(=O)Oc1c(C)cc([N+](=O)[O-])cc1[N+](=O)[O-] | growth inhibition: 40

In plain terms, COC(=O)/C=C(/C(=O)OC)C(Cl)(Cl)Cl has a documented growth inhibition of -3

Notebook: CN(C)c1ccc2c(SCC(=O)OCC(=O)[C@@]3(O)CC[C@H]4[C@@H]5CCC6=CC(=O)C=C[C@]6(C)[C@H]5C(=O)C[C@@]43C)c3ccc(N(C)C)cc3nc2c1 , growth inhibition read as 22

The value of growth inhibition measured for the compound NC(=S)NC(=S)Nc1ccccc1 turned out to be -13

growth inhibition reading for CC[N+](CC)(CC)c1ccccc1 : 31

Looking up S=C1SCN(C2CCCCC2)CN1C1CCCCC1 , I see its growth inhibition listed as 20

----------
Test: NCI Yeast Anticancer Drug Screen. Data for the rad52 strain (AID 147);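 further: 0% = growth of vehicle-treated control cultures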
Conditions: S. cerevisiae rad52 mutant growth inhibition; at 3.7 µM; hits give high values
The panel holds about 79,000 compounds, 15% with a hit somewhere; the sample as a whole holds those more often. Calls of active or inactive are those of the source. Rule as the data show it: active = growth inhibition above about 70%; inactive = the rest.
parameterMeasured: growth inhibition

Recorded results for 3 molecules are shown here.
O=C(O)Cc1cc(F)ccc1C(=O)O	4% (inactive)
Cc1ccc(Cl)cc1NC(=O)OCCN(C)C(=O)Nc1cc(Cl)ccc1C	-12% (inactive)
CCCCCCCCCCCC(O)S(=O)(=O)O (stereo unspecified)	0% (inactive)

For this molecule ( CCOC1(c2cccc([N+](=O)[O-])c2)c2ccccc2Oc2ccccc21 ), measured growth inhibition is 2% (inactive)

The value of growth inhibition measured for the molecule CCOc1ccc(NC(=O)C2=C(C)NC(C)=C(C(=O)Nc3ccc(OCC)cc3)C2c2cccc([N+](=O)[O-])c2)cc1 turned out to be 0% (inactive)

// growth inhibition lookup, molecule = CC(C)(C)[Si](C)(C)OCC1CCC(n2cnc3c(NC(=O)c4ccccc4)ncnc32)O1 (stereo unspecified) , result: -3% (inactive)

Field growth inhibition (entry COc1nc2c(c(=O)n1C)N=C(c1ccccc1)[C@H](C(CC(=O)c1ccccc1)c1ccccc1)C(c1ccccc1)N2 (stereo partly specified) ) reads 13% (inactive)

Please fill in: growth inhibition reported for Cc1c2cccc(Sc3ccccc3)c2c2c3c(cccc13)[S+](c1ccccc1)C2 (stereo unspecified) = 41% (inactive)

Looking up C=C1C(=O)OC2CC1C(OC(C)=O)C/C(C)=C/CC/C(C)=C\CCC2(C)O (stereo unspecified) , I see its growth inhibition listed as 1% (inactive)

// O=C(Oc1ccc2c(c1)CN(Cc1ccccc1)CO2)c1ccccc1 : growth inhibition value = 4% (inactive)

Input Cc1cccc(/C=N/NC(=S)N2CCCC2)n1 . Output growth inhibition: -26% (inactive)

----------
Test: NCI Yeast Anticancer Drug Screen. Data for the rad52 strain (AID 147);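 further: 0% = growth of vehicle-treated control cultures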
Settings: S. cerevisiae rad52 mutant growth inhibition; at 1.2 µM; hits give high values
This is part of a sample that, as a whole, favours compounds with a hit. Of some 79,000 tested, about 15% had one in any assay. The source made the active and inactive calls. No stated cut-off is given here; in the data, active means growth inhibition above about 70%; inactive means the rest.
# maps each entry to its growth inhibition

COc1ccc([N+](=O)[O-])c2c(NCCCN(C)C)c3ccccc3nc12	15% (inactive)
Cc1cc(C(C)(C)CC(C)(C)C)ccc1O	-22% (inactive)
CCCOC(=O)C(F)C(Br)C(=O)OCCC (configuration not stated)	38% (inactive)
CC(=O)Nc1ccc2c(c1)-c1ccccc1C2=O	-1% (inactive)
CCCCCCCCCCCC(O)S(=O)(=O)O (configuration not stated)	0% (inactive)
CCCCNC1CCC2(SCCS2)c2[nH]c3ccccc3c21 (configuration not stated)	2% (inactive)
Cc1nc2c(Br)cc(Br)cc2c(=O)n1-c1ccccc1NC1OCC(O)C(O)C1O (configuration not stated)	1% (inactive)
Cc1ccc2c3ccc4c(c3n(C)c2c1)C(=O)C=CC4=O	-55% (inactive)

Value of measured growth inhibition for the entry CCC(=O)c1cc(C(=O)C(=S)SC)cc(C(=O)C(=S)SC)c1 : 1% (inactive)

Reported growth inhibition for COc1oc(C(=O)NC2CCCCC2)c(-c2ccc(Cl)cc2)c1S(=O)(=O)c1ccccc1 was -5% (inactive)

Summary for this molecule, COC(=O)C1=C(C(=O)OC)C(C(=O)OC)C(C(=O)OC)C(C(=O)OC)(C(=O)OC)C(C(=O)OC)=C1C(=O)OC (configuration not stated) : growth inhibition is -2% (inactive)

For reference, reported growth inhibition for Cc1ccc(Cl)cc1NC(=O)OCCN(C)C(=O)Nc1cc(Cl)ccc1C stands at 7% (inactive)

Cited source for all entries: PubChem BioAssay (NCI)
